molecular target: PDGFβ (Homo sapiens); assay: PDGFβ enzyme assay; format: biochemical; details: Table IV, amide or urea linker
Sequence (P09619 33-1106): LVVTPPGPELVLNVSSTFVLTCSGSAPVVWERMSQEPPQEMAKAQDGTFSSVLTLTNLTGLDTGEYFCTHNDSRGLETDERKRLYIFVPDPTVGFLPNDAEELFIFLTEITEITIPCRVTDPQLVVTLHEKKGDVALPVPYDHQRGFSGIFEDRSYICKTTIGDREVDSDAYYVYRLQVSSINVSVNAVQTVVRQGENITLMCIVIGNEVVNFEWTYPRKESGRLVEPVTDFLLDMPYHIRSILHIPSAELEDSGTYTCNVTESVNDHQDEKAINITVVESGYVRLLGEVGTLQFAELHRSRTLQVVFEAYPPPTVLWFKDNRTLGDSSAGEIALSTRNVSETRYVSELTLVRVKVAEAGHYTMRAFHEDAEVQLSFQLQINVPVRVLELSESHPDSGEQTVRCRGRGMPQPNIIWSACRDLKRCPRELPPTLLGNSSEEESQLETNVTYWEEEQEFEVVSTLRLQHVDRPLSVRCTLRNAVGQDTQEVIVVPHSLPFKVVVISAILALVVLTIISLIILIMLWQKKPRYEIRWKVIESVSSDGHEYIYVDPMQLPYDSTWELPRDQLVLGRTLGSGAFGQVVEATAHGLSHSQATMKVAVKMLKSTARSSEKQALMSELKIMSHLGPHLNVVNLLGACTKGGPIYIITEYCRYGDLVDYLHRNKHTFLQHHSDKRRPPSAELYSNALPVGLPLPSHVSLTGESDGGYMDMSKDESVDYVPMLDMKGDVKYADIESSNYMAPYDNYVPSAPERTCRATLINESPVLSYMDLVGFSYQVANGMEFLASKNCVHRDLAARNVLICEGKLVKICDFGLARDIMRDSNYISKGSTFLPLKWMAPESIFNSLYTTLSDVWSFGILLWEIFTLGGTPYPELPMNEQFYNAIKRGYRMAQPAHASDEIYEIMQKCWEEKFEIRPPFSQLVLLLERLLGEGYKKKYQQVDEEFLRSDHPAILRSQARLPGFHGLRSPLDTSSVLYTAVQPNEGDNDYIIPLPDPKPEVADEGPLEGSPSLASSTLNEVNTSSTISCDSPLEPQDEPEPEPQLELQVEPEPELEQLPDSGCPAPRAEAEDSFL
pIC50: −log10 of the molar value.
quantity_measured: pIC50

Cc1ccc(F)c(NC(=O)Nc2ccc(Oc3ccnc(-c4cc(C(=O)NCCCNC(=O)OC(C)(C)C)c[nH]4)c3)cc2F)c1 [Example 212]; 7.35
CCNC(=O)[C@H](CCC(=O)OC)NC(=O)c1c[nH]c(-c2cc(Oc3cc(C(=O)Nc4cc(C)ccc4F)ccc3F)ccn2)c1 [Example 261]; 7.00

[a] CCOC(=O)N1CCN(CCCNC(=O)c2c[nH]c(-c3cc(Oc4ccc(NC(=O)Nc5cc(C)ccc5F)c(F)c4)ccn3)c2)CC1 [Example 172]
[b] CCNC(=O)CC[C@H](NC(=O)c1c[nH]c(-c2cc(Oc3ccc(NC(=O)Nc4cc(C)ccc4F)cc3)ccn2)c1)C(=O)NCC [Example 263]
Which of the two items, a and b , has the greater recorded pIC50? Please respond with the label that marks your chosen entry. a
(a: 7.72, b: 7.34)

[A] Cc1ccc(F)c(NC(=O)Nc2ccc(Oc3ccnc(-c4cc(C(=O)NCCCN5CCCC5C(=O)O)c[nH]4)c3)cc2F)c1 (centres unmarked) [Example 220]
[B] COC(=O)CC[C@H](NC(=O)c1c[nH]c(-c2cc(Oc3cc(C(=O)Nc4cc(C)ccc4F)ccc3F)ccn2)c1)C(=O)OC [Example 249]
Please compare: A and B . Report which one has the smaller pIC50 value. # answer = label of selected item B

----------
IC50, human VEGF receptor (VEGFR-2) (Homo sapiens): measured values
quantity_measured: IC50 (nM)

Cc1ccc(F)c(NC(=O)c2ccc(F)c(Oc3ccnc(-c4cc(C(=O)N[C@@H](CCC(=O)O)C(=O)O)c[nH]4)c3)c2)c1 (stereo in doubt) [Example 248]; 56
Cc1ccc(F)c(NC(=O)Nc2ccc(Oc3ccnc(-c4cc(C(=O)NCCCN(CC(=O)O)CC(=O)O)c[nH]4)c3)cc2)c1 [Example 214]; 22
Cc1ccoc1C(=O)Nc1cc(Oc2ccnc(-c3cc(C(=O)NCCCN4CCCCC4)c[nH]3)c2)ccc1F [Example 191]; 25

[a] COC(=O)CC[C@H](NC(=O)c1c[nH]c(-c2cc(Oc3cc(C(=O)Nc4cc(C)ccc4F)ccc3F)ccn2)c1)C(=O)O [Example 262]
[b] Cc1ccc(F)c(NC(=O)Nc2ccc(Oc3ccnc(-c4cc(C(=O)NCCCN5CCCC5)c[nH]4)c3)cc2F)c1 [Example 226]
Larger number for IC50: a , or b ? Response format: the label of the selected entry. a
(a: 67 nM, b: 6 nM)

[a] Cc1ccc(F)c(NC(=O)c2ccc(F)c(Oc3ccnc(-c4cc(C(=O)NCCCNC(=O)OC(C)(C)C)c[nH]4)c3)c2)c1 [Example 253]
[b] COC(=O)CN(CCNC(=O)c1c[nH]c(-c2cc(Oc3cc(C(=O)Nc4cc(C)ccc4F)ccc3F)ccn2)c1)CC(=O)OC [Example 179]
// select label with min value of measured IC50 from [ a , b ] Your choice should be expressed through its label. b

[P] Cc1ccc(F)c(NC(=O)Nc2ccc(Oc3ccnc(-c4cc(C(=O)N5CCNCC5)c[nH]4)c3)cc2F)c1 [Example 221]
[Q] Cc1ccoc1C(=O)Nc1cc(Oc2ccnc(-c3cc(C(=O)NCCCN4CCN(C)CC4)c[nH]3)c2)ccc1F [Example 193]
Which is greater in IC50, the first item P or the second item Q ? State your choice using its label. Q

[a] Cc1ccc(F)c(NC(=O)Nc2ccc(Oc3ccnc(-c4cc(C(=O)NCCCNC(=O)OC(C)(C)C)c[nH]4)c3)cc2)c1 [Example 251]
[b] Cc1ccc(F)c(NC(=O)Nc2ccc(Oc3ccnc(-c4cc(C(=O)NCCNC(=O)OC(C)(C)C)c[nH]4)c3)cc2F)c1 [Example 216]
[c] Cc1ccc(F)c(NC(=O)Nc2ccc(Oc3ccnc(-c4cc(C(=O)NCCCc5nn[nH]n5)c[nH]4)c3)cc2)c1 [Example 149]
[d] Cc1ccoc1C(=O)Nc1cc(Oc2ccnc(-c3cc(C(=O)NCCCN4CCCC4)c[nH]3)c2)ccc1F [Example 192]
Please list these in order of increasing IC50. Thank you! Write the labels, ordered according to the request. c, b, d, a
(c: 4 nM, b: 17 nM, d: 26 nM, a: 46 nM)

----------
biological target: human VEGF receptor (VEGFR-2) (Homo sapiens, UniProt P35968)
Sequence (P35968 786-1356 limits assumed): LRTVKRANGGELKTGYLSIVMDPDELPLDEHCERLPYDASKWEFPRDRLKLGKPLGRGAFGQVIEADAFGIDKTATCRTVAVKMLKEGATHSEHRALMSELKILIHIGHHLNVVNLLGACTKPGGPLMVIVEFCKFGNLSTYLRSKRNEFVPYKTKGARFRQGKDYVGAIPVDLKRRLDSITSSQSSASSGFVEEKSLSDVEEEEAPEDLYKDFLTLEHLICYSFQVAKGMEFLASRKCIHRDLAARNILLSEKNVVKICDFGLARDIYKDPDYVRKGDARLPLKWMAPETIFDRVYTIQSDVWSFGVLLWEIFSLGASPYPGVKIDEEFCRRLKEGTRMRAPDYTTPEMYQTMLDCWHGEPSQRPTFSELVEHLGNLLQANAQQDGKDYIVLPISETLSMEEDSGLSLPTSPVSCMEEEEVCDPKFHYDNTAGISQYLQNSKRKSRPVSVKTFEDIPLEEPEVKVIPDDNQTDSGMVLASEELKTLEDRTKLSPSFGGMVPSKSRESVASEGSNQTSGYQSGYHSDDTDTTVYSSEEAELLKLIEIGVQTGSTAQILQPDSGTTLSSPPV
quantity_measured: IC50 (nM)

Use these answered entries as a reference point.
COC(=O)[C@@H]1C[C@@H](O)CN1CCNC(=O)c1c[nH]c(-c2cc(Oc3ccc(NC(=O)Nc4cc(C)ccc4F)cc3)ccn2)c1 (relative stereo) [Example 161]; 9
COC(=O)C1CCCN1CCCNC(=O)c1c[nH]c(-c2cc(Oc3ccc(NC(=O)Nc4cc(C)ccc4F)c(F)c3)ccn2)c1 (stereo not drawn) [Example 228]; 11
COCCOC(=O)CCCNC(=O)c1c[nH]c(-c2cc(Oc3ccc(NC(=O)Nc4cc(C)ccc4F)cc3)ccn2)c1 [Example 233]; 9
COC(=O)CCNC(=O)c1c[nH]c(-c2cc(Oc3cc(C(=O)Nc4cccc(C)c4)ccc3F)ccn2)c1 [Example 277]; 13
COC(=O)[C@@H]1CCCN1CCCNC(=O)c1c[nH]c(-c2cc(Oc3cc(C(=O)Nc4cc(C)ccc4F)ccc3F)ccn2)c1 [Example 243]; 16

[A] CCOC(=O)CN1CCN(C(=O)c2c[nH]c(-c3cc(Oc4ccc(NC(=O)Nc5cc(C)ccc5F)c(F)c4)ccn3)c2)CC1 [Example 219]
[B] Cc1ccc(F)c(NC(=O)Nc2ccc(Oc3ccnc(-c4cc(C(=O)NCCCC(=O)NN)c[nH]4)c3)cc2)c1 [Example 177]
[C] COC(=O)CN(CCCNC(=O)c1c[nH]c(-c2cc(Oc3cc(C(=O)Nc4cc(C)ccc4F)ccc3F)ccn2)c1)CC(=O)OC [Example 178]
[D] COC(=O)[C@@H]1C[C@@H](O)CN1CCCNC(=O)c1c[nH]c(-c2cc(Oc3ccc(NC(=O)Nc4cc(C)ccc4F)c(F)c3)ccn2)c1 (relative stereo) [Example 217]
Order the 4 compounds from highest to lowest IC50. Please list the labels in the order you were asked to rank them. C, B, A, D

[a] Cc1ccc(F)c(NC(=O)Nc2ccc(Oc3ccnc(-c4cc(C(=O)NCCCC(=O)OCC(CO)(CO)CO)c[nH]4)c3)cc2)c1 [Example 234]
[b] Cc1ccc(F)c(NC(=O)Nc2ccc(Oc3ccnc(-c4cc(C(=O)NCCCN5CCC(C(=O)O)C5)c[nH]4)c3)cc2)c1 (stereo not drawn) [Example 268]
For a and b , which recorded IC50 is lower? // respond with label for picked entry a
(a: 8 nM, b: 15 nM)

----------
biological target: PDGFβ (Homo sapiens); assay: PDGFβ enzyme assay; type: biochemical; conditions: Table IV, amide or urea linker
pIC50: −log10 of the molar value.
quantity_measured: pIC50

Cc1ccc(F)c(NC(=O)Nc2ccc(Oc3ccnc(-c4cc(C(=O)NCCCN(C)CC(O)CO)c[nH]4)c3)cc2F)c1 (centres unmarked); 7.72
Cc1cccc(NC(=O)Nc2ccc(Oc3ccnc(-c4cc(C(=O)NCCCN5CCC(O)CC5)c[nH]4)c3)cc2)c1; 7.82
Cc1ccc(F)c(NC(=O)Nc2ccc(Oc3ccnc(-c4cc(C(=O)NN)c[nH]4)c3)cc2)c1; 7.57
Cc1ccc(F)c(NC(=O)Nc2ccc(Oc3ccnc(-c4cc(C(=O)N5CCNCC5)c[nH]4)c3)cc2F)c1; 7.72
Cc1ccc(F)c(NC(=O)Nc2ccc(Oc3ccnc(-c4cc(C(=O)NCCCN)c[nH]4)c3)cc2F)c1; 7.80

[a] Cc1ccc(F)c(NC(=O)Nc2ccc(Oc3ccnc(-c4cc(C(=O)NCCCC(=O)OCC(CO)(CO)CO)c[nH]4)c3)cc2)c1
[b] COC(=O)CCCOC(=O)c1c[nH]c(-c2cc(Oc3ccc(NC(=O)Nc4cc(C)ccc4F)cc3)ccn2)c1
[c] Cc1ccc(F)c(NC(=O)Nc2ccc(Oc3ccnc(-c4cc(C(=O)OCCCN5CCOCC5)c[nH]4)c3)cc2F)c1
Hey, can you sort those compounds up there by pIC50, smallest first? // rank by listing labels in the order requested b, a, c
(b: 7.46, a: 7.77, c: 8.05)

Origin of values: patent US8906944B2
